Reference for the values: patent US9642869B2

Give Conc. at t = 4 hr (prodrug) for every item shown.
Test: Serum stability of prodrugs (hydrolysis by human serum)
Format: in vitro ADME
Settings: 37° C., 4 hr
Numbers only, in µg/mL.

Example results:
[[record]]
cpd_smiles = "CSCC(=O)N[C@H]1Cc2cccc(C(=O)OCOC(=O)C(C)(C)C)c2OB1O"
reported_metric = "Conc. at t = 4 hr (prodrug)"
unit_of_measurement = "µg/mL"
recorded_result = 1000

[[record]]
cpd_smiles = "CCC(CC)C(=O)OCOC(=O)c1cccc2c1OB(O)[C@@H](NC(=O)CSC)C2"
reported_metric = "Conc. at t = 4 hr (prodrug)"
unit_of_measurement = "µg/mL"
recorded_result = 790


Determine from records and report Conc. at t = 4 hr (prodrug) for CSCC(=O)N[C@H]1Cc2cccc(C(=O)OCOC(=O)OC(C)C)c2OB1O 240

----------
Molecular target: P99 (Enterobacter cloacae)
Sequence (P05364 21-381): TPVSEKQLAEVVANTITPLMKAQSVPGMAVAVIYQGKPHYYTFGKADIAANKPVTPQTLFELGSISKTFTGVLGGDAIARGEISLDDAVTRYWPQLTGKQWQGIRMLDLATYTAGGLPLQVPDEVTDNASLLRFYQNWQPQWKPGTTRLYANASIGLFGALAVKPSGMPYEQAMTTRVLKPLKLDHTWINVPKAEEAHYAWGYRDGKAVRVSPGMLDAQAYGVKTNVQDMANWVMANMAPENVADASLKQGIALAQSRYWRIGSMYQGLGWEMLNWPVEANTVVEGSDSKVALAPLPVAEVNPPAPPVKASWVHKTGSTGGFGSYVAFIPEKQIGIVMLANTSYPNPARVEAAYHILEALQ
Test: Inhibition of nitrocefin cleavage by purified enzyme (Ki)
Conditions: nitrocefin reporter substrate, 10 min preincubation; read-out: Ki (P99, NCF)
pKi: −log10 of the molar value.
REPORTED_METRIC: pKi

Example results:
[[record]]
compound = "O=C(CSC1CNC1)N[C@H]1Cc2cccc(C(=O)O)c2OB1O [Compound 22]"
target = "P99 (Enterobacter cloacae)"
recorded_result = "8.00 to 9.00"

[[record]]
compound = "Nc1nnc(C(=O)N[C@H]2Cc3cccc(C(=O)O)c3OB2O)o1 [Compound 20]"
target = "P99 (Enterobacter cloacae)"
recorded_result = "8.00 to 9.00"


Proceeding to the next compound to report its pKi.
Please report pKi with P99 (Enterobacter cloacae) for item CNC(=O)CC(=O)N[C@H]1Cc2cccc(C(=O)O)c2OB1O [Compound 21] . 8.00 to 9.00

----------
Test: Intravenous pharmacokinetics
Assay type: in vivo
Conditions: rat, plasma; rats, IV infusion over 0.5 hours, dose 20 mg/kg; read-out: Free Cl (converted)
Returns one of Met or Not met; Met when clearance is >= 30 mL/min/kg.

Study these solved cases before continuing.
[[record]]
compound = "O=C(CSC1CNC1)N[C@H]1Cc2cccc(C(=O)O)c2OB1O [Compound 22]"
cat = "Not met"

[[record]]
compound = "O=C(CSC(F)F)N[C@H]1Cc2cccc(C(=O)O)c2OB1O [Compound 3]"
cat = "Met"

[[record]]
compound = "CSCC(=O)N[C@H]1Cc2cccc(C(=O)O)c2OB1O [Compound 13]"
cat = "Met"

[[record]]
compound = "O=C(CSc1nncs1)N[C@H]1Cc2cccc(C(=O)O)c2OB1O [Compound 7]"
cat = "Met"

[[record]]
compound = "Nc1nnc(SCC(=O)N[C@H]2Cc3cccc(C(=O)O)c3OB2O)s1 [Compound 5]"
cat = "Not met"


Here is another compound to look at.
For this compound, is measured clearance 30 mL/min/kg or higher? O=CN[C@H]1Cc2cccc(C(=O)O)c2OB1O [Compound 4] Not met

----------
Test: Serum stability of prodrugs (hydrolysis by rat serum)
Format: in vitro ADME
Conditions: 37° C., 4 hr
Give Conc. at t = 4 hr (prodrug) for every item shown.
Numbers only, in µg/mL.

Example results:
[[record]]
cpd_smiles = "CCC(CC)C(=O)OCOC(=O)c1cccc2c1OB(O)[C@@H](NC(=O)CSC)C2"
reported_metric = "Conc. at t = 4 hr (prodrug)"
unit_of_measurement = "µg/mL"
recorded_result = 1080

[[record]]
cpd_smiles = "CSCC(=O)N[C@H]1Cc2cccc(C(=O)OCOC(=O)C(C)(C)C)c2OB1O"
reported_metric = "Conc. at t = 4 hr (prodrug)"
unit_of_measurement = "µg/mL"
recorded_result = 1100


Proceeding to the next molecule to report its Conc. at t = 4 hr (prodrug).
Determine from records and report Conc. at t = 4 hr (prodrug) for CSCC(=O)N[C@H]1Cc2cccc(C(=O)OCOC(=O)OC(C)C)c2OB1O 330

----------
Assay: Intravenous pharmacokinetics
Assay type: in vivo
Conditions: rat, plasma; rats, IV infusion over 0.5 hours, dose 10 mg/kg; read-out: Free Cl (converted)
REPORTED_METRIC: clearance (mL/min/kg)
One number for each entry, in mL/min/kg.

Example results:
[[record]]
molecule = "O=C(N[C@H]1Cc2cccc(C(=O)O)c2OB1O)c1cccnc1 [Compound 12]"
unit_of_measurement = "mL/min/kg"
recorded_result = 45.7

[[record]]
molecule = "[N-]=[N+]=NCC(=O)N[C@H]1Cc2cccc(C(=O)O)c2OB1O [Compound 8]"
unit_of_measurement = "mL/min/kg"
recorded_result = 35

[[record]]
molecule = "Nc1nnc(C(=O)N[C@H]2Cc3cccc(C(=O)O)c3OB2O)s1 [Compound 19]"
unit_of_measurement = "mL/min/kg"
recorded_result = 20.8


Proceeding to the next molecule to report its clearance.
Determine from records and report clearance for NC(=O)CC(=O)N[C@H]1Cc2cccc(C(=O)O)c2OB1O [Compound 16] 14.5

----------
Assay: Serum stability of prodrugs (hydrolysis by human serum)
Type: in vitro ADME
Conditions: 37° C.
REPORTED_METRIC: Measured Initial Conc. in Serum (prodrug) (µg/mL)
Answers are plain numbers, in µg/mL.

Example results:
[[record]]
cpd_smiles = "CCC(CC)C(=O)OCOC(=O)c1cccc2c1OB(O)[C@@H](NC(=O)CSC)C2"
unit_of_measurement = "µg/mL"
recorded_result = 1520

[[record]]
cpd_smiles = "CCCC(=O)OCOC(=O)c1cccc2c1OB(O)[C@@H](NC(=O)CSC)C2"
unit_of_measurement = "µg/mL"
recorded_result = 27.3

[[record]]
cpd_smiles = "CSCC(=O)N[C@H]1Cc2cccc(C(=O)OCOC(=O)C(C)(C)C)c2OB1O"
unit_of_measurement = "µg/mL"
recorded_result = 1860


Proceeding to the next compound to report its Measured Initial Conc. in Serum (prodrug).
Determine from records and report Measured Initial Conc. in Serum (prodrug) for CSCC(=O)N[C@H]1Cc2cccc(C(=O)OCOC(=O)OC(C)C)c2OB1O 1790

----------
Target: CTX-M-14 (Escherichia coli)
Sequence (Q9L5C7 entry or part of it): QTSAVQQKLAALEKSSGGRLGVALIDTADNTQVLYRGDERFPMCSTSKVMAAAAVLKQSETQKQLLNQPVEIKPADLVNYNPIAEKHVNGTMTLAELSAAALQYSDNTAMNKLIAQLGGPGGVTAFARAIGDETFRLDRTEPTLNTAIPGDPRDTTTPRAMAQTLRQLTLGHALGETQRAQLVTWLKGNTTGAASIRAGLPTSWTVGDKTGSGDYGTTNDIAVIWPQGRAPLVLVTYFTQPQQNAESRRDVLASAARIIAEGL
Assay: Inhibition of nitrocefin cleavage by purified enzyme (Ki)
Settings: nitrocefin reporter substrate, 10 min preincubation; read-out: Ki (CTX-M-14, NCF)
pKi: −log10 of the molar value.
Give pKi for every item shown.

Example results:
[[record]]
cpd_smiles = "CNC(=O)CC(=O)N[C@H]1Cc2cccc(C(=O)O)c2OB1O"
target = "CTX-M-14 (Escherichia coli)"
reported_metric = "pKi"
recorded_result = "8.00 to 9.00"

[[record]]
cpd_smiles = "Nc1nnc(C(=O)N[C@H]2Cc3cccc(C(=O)O)c3OB2O)o1"
target = "CTX-M-14 (Escherichia coli)"
reported_metric = "pKi"
recorded_result = "8.00 to 9.00"


Please report pKi with CTX-M-14 (Escherichia coli) for item O=C(CSC1CNC1)N[C@H]1Cc2cccc(C(=O)O)c2OB1O . 8.00 to 9.00

----------
Give pKi for every item shown.
Biological target: OXA-48 (Klebsiella pneumoniae, UniProt Q6XEC0)
Sequence (Q6XEC0 23-265 limits assumed): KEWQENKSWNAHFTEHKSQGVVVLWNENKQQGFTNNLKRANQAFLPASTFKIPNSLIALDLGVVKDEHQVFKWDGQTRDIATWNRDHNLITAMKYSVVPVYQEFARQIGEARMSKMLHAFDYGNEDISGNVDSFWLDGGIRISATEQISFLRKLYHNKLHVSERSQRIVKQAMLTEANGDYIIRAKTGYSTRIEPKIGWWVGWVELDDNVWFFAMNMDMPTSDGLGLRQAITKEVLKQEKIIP
Experiment: Inhibition of nitrocefin cleavage by purified enzyme (Ki)
Details: nitrocefin reporter substrate, 10 min preincubation; read-out: Ki (OXA-48, NCF)
pKi: −log10 of the molar value.

Example results:
[[record]]
molecule = "Nc1nnc(C(=O)N[C@H]2Cc3cccc(C(=O)O)c3OB2O)o1 [Compound 20]"
target = "OXA-48 (Klebsiella pneumoniae, UniProt Q6XEC0)"
reported_metric = "pKi"
recorded_result = "8.00 to 9.00"

[[record]]
molecule = "CNC(=O)CC(=O)N[C@H]1Cc2cccc(C(=O)O)c2OB1O [Compound 21]"
target = "OXA-48 (Klebsiella pneumoniae, UniProt Q6XEC0)"
reported_metric = "pKi"
recorded_result = "> 9.00"

[[record]]
molecule = "O=C(CSC1CNC1)N[C@H]1Cc2cccc(C(=O)O)c2OB1O [Compound 22]"
target = "OXA-48 (Klebsiella pneumoniae, UniProt Q6XEC0)"
reported_metric = "pKi"
recorded_result = "8.00 to 9.00"


Proceeding to the next molecule to report its pKi.
Determine from records and report pKi for NC(=O)CC(=O)N[C@H]1Cc2cccc(C(=O)O)c2OB1O [Compound 16] > 9.00

----------
Molecular target: UniProt:Q9F663
Sequence (Q9F663 25-293 limits assumed): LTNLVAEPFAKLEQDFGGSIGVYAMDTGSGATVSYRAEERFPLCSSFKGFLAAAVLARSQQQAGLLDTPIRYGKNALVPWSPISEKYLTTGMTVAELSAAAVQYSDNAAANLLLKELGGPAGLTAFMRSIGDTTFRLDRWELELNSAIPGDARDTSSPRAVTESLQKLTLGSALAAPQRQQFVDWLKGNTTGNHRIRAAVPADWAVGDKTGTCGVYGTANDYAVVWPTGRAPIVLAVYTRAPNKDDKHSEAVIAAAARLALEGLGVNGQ
Assay: Inhibition of nitrocefin cleavage by purified enzyme (Ki)
Type: biochemical
Conditions: nitrocefin reporter substrate, 10 min preincubation; read-out: Ki (KPC-2, NCF)
pKi: −log10 of the molar value.
Give pKi for every item shown.

[[record]]
cpd_smiles = "CNC(=O)CC(=O)N[C@H]1Cc2cccc(C(=O)O)c2OB1O"
recorded_result = "< 8.00"

[[record]]
cpd_smiles = "O=C(CSC1CNC1)N[C@H]1Cc2cccc(C(=O)O)c2OB1O"
recorded_result = "< 8.00"


Proceeding to the next compound to report its pKi.
Determine from records and report pKi for Nc1nnc(C(=O)N[C@H]2Cc3cccc(C(=O)O)c3OB2O)o1 < 8.00
